Examples of compounds with documented activity at 40 min, 0.01 µM follow.
Target: alpha1 adrenoceptor (Mus musculus, UniProt P97714+P97717+P97718)
Sequence (P97714 whole entry): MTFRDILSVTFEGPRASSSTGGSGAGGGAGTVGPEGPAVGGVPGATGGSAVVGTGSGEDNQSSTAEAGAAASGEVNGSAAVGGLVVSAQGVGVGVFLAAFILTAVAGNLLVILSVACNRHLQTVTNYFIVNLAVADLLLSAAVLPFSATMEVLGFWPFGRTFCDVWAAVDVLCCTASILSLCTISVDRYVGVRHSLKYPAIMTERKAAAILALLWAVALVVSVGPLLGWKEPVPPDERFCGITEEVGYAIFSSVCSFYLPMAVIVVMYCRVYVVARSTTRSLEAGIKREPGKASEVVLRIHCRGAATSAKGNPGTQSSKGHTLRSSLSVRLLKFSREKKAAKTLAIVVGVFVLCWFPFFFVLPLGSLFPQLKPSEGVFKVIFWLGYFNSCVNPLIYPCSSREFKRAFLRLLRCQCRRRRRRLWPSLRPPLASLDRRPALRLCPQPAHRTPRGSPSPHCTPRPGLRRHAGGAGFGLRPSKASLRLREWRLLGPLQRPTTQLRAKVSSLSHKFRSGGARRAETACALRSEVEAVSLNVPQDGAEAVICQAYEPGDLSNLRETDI
Sequence (P97717 whole entry): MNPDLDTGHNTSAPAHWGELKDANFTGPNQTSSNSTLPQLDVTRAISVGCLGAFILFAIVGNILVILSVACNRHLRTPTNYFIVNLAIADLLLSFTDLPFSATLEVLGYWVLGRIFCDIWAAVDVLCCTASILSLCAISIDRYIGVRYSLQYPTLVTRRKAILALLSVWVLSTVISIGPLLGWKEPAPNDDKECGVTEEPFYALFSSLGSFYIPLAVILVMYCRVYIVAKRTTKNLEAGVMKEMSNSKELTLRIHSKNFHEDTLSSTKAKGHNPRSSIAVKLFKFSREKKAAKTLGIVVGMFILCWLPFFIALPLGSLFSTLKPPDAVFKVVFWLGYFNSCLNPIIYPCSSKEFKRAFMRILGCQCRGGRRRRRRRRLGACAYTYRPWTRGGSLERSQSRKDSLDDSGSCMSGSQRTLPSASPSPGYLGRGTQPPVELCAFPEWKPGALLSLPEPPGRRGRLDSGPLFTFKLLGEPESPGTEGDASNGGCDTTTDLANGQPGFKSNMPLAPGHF
Sequence (P97718 whole entry): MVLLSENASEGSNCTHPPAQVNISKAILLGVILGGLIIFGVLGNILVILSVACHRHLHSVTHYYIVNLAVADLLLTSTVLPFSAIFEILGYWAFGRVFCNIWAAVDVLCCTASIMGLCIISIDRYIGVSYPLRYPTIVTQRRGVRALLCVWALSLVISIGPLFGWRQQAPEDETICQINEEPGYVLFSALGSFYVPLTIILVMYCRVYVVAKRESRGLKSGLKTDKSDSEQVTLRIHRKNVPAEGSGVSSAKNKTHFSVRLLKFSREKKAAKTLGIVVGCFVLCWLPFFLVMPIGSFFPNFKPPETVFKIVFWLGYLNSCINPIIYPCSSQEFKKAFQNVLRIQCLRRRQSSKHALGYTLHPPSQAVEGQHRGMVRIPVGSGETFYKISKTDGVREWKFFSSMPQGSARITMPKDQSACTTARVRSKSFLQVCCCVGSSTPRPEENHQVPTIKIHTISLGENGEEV
Assay: Displacement of [3H]prazosin from alpha1 adrenoceptor in C57BL/6 mouse hippocampal homogenates assessed as remaining receptor bound [3H]prazosin levels at 0.01 uM after 40 mins by liquid scintillation counting method relative to control
Settings: probe [3H]prazosin, read-out: Activity
Quick reminder: number only, in %, skip the unit.

# count of solved cases: 5
| lineNotation | activity at 40 min, 0.01 µM, % |
| --- | --- |
| Cc1ccnc2ccccc12 | 26.3 |
| CCN1/C(=C/c2ccc3cc(I)ccc3[n+]2CC)C=Cc2ccccc21.[I-] | 98.3 |
| CCN1/C(=C/c2ccc3ccccc3[n+]2CC)C=Cc2ccccc21.[I-] | 81.2 |
| CCN1/C(=C/c2ccc3cc(Br)ccc3[n+]2CC)C=Cc2ccccc21.[I-] | 102 |
| CCN1/C(=C/c2ccc3cc(OC)ccc3[n+]2CC)C=Cc2ccccc21.[I-] | 97 |

Below: the item to evaluate.
Please list activity at 40 min, 0.01 µM recorded for the compound CC(C)[n+]1ccc(/C=C2/C=Cc3ccccc3N2C)c2ccccc21.O=C([O-])C(F)(F)F
97.3

Reference source: ChEMBL document CHEMBL4118073
